tested on: Mutant CD33-GFP M19 (348ATAI) on 293FT cells (UniProt P20138)
test: FACS, mutant CD33-GFP on 293FT cells
recorded endpoint: FACS binding data
Lab note: write the figure by itself, no unit.

>  <binder>
sdCD33_10 (VHH) VHH: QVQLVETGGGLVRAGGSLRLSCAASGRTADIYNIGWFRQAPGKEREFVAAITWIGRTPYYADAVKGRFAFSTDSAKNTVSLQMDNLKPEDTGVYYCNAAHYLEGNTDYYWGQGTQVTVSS

>  <FACS binding data>
98.3

$$$$
>  <binder>
sdCD33_6 (VHH, sdAb from a naive llama phage library; also called 416; sdAb416) VHH: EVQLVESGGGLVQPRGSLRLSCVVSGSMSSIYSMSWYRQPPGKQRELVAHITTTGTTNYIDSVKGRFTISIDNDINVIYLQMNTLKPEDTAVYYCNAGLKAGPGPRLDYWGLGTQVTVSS

>  <FACS binding data>
99.6

$$$$
>  <binder>
sdCD33_4 (VHH) VHH: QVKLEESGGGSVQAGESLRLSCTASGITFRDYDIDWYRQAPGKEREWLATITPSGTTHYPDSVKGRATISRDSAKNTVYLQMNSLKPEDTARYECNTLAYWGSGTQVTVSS

>  <FACS binding data>
99.6

$$$$
>  <binder>
sdCD33_11 (VHH, sdAb from a naive llama phage library; also called 430; sdAb430) VHH: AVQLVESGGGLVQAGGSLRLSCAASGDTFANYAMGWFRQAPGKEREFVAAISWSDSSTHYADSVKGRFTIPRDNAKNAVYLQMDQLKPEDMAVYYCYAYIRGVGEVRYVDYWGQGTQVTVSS

>  <FACS binding data>
99.8

$$$$
>  <binder>
sdCD33_8 (VHH, sdAb from a naive llama phage library; also called 424; sdAb424) VHH: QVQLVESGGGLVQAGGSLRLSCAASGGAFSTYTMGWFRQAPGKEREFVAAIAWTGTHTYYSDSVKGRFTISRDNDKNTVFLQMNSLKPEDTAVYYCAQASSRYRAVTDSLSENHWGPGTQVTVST

>  <FACS binding data>
99.5

$$$$

IN: Report measured FACS binding data; entry is sdCD33_2 (VHH) VHH: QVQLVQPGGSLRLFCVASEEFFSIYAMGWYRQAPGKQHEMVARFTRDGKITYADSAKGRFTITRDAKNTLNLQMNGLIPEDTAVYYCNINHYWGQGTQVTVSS
OUT: 99

IN: Report measured FACS binding data; entry is sdCD33_7 (VHH, sdAb from a naive llama phage library; also called 420; sdAb420) VHH: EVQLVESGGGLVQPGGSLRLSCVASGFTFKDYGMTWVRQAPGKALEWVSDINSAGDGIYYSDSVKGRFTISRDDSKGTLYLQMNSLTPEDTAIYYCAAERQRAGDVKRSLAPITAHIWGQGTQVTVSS
OUT: 99.4

IN: Report measured FACS binding data; entry is sdCD33_5 (VHH, sdAb from a naive llama phage library; also called 413; sdAb413) VHH: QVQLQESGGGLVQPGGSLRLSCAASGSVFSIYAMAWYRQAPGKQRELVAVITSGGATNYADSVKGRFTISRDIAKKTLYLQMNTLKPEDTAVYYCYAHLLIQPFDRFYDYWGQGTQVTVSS
OUT: 99.3

IN: Report measured FACS binding data; entry is sdCD33_9 (VHH, sdAb from a naive llama phage library; also called 426; sdAb426) VHH: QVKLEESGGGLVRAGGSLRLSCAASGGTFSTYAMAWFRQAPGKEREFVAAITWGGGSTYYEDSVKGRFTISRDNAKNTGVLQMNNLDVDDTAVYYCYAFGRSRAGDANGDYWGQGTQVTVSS
OUT: 99.8

IN: Report measured FACS binding data; entry is sdCD33_3 (VHH) VHH: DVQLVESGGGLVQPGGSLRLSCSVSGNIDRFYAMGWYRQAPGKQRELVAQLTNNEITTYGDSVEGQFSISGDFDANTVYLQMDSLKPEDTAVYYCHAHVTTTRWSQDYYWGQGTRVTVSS
OUT: 99.6
